# measuredTarget: T1, IL-18 binding protein (IL-18BP) (UniProt O95998 31-194)
# T1 sequence (looked up): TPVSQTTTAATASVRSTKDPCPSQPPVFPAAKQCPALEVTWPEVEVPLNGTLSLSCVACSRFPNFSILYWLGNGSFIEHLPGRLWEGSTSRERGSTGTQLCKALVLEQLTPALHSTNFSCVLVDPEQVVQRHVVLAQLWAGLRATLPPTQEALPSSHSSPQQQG
# assayInfo: cell-based or functional assay
The label depends only on Ratio (-BP/+BP), DF-25000007: true if it is at least 2, false if it is smaller.

Q: Form field: Ratio (-BP/+BP), DF-25000007 at least 2? Entry: IL-18 variant G3P, E6K, K53M, D54W, S55N, T63S, N91I (ligand) YFPKLKSKLSVIRNLNDQVLFIDQGNRPLFEDMTDSDMRDNAPRTIFIISMYMWNQPRGMAVSISVKSEKISTLSSENKIISFKEMNPPDIIKDTKSDIIFFQRSVPGHDNKMQFESSSYEGYFLASEKERDLFKLILKKEDELGDRSIMFTVQNED
Result: false

Q: Form field: Ratio (-BP/+BP), DF-25000007 at least 2? Entry: IL-18 variant G3D, E6Q, R27S, K53R, D54A, S55R, T63S, N91Q (ligand) YFDKLQSKLSVIRNLNDQVLFIDQGNSPLFEDMTDSDMRDNAPRTIFIISMYRARQPRGMAVSISVKSEKISTLSSENKIISFKEMNPPDQIKDTKSDIIFFQRSVPGHDNKMQFESSSYEGYFLASEKERDLFKLILKKEDELGDRSIMFTVQNED
Result: false

Q: Form field: Ratio (-BP/+BP), DF-25000007 at least 2? Entry: IL-18 variant G3P, E6K, D54Y, S55P, T63S, N91S, R104Q, Q154R (ligand) YFPKLKSKLSVIRNLNDQVLFIDQGNRPLFEDMTDSDMRDNAPRTIFIISMYKYPQPRGMAVSISVKSEKISTLSSENKIISFKEMNPPDSIKDTKSDIIFFQQSVPGHDNKMQFESSSYEGYFLASEKERDLFKLILKKEDELGDRSIMFTVRNED
Result: false

Q: Form field: Ratio (-BP/+BP), DF-25000007 at least 2? Entry: IL-18 variant G3Q, E6G, D54N, S55H, T63V, N91M, R104T (ligand) YFQKLGSKLSVIRNLNDQVLFIDQGNRPLFEDMTDSDMRDNAPRTIFIISMYKNHQPRGMAVVISVKSEKISTLSSENKIISFKEMNPPDMIKDTKSDIIFFQTSVPGHDNKMQFESSSYEGYFLASEKERDLFKLILKKEDELGDRSIMFTVQNED
Result: false

Q: Form field: Ratio (-BP/+BP), DF-25000007 at least 2? Entry: IL-18 variant G3Q, E6N, K53T, D54A, N91K, R104P (ligand) YFQKLNSKLSVIRNLNDQVLFIDQGNRPLFEDMTDSDMRDNAPRTIFIISMYTASQPRGMAVTISVKSEKISTLSSENKIISFKEMNPPDKIKDTKSDIIFFQPSVPGHDNKMQFESSSYEGYFLASEKERDLFKLILKKEDELGDRSIMFTVQNED
Result: false

Q: Form field: Ratio (-BP/+BP), DF-25000007 at least 2? Entry: IL-18 variant G3I, E6Q, N91M, R104Y (ligand) YFIKLQSKLSVIRNLNDQVLFIDQGNRPLFEDMTDSDMRDNAPRTIFIISMYKDSQPRGMAVTISVKSEKISTLSSENKIISFKEMNPPDMIKDTKSDIIFFQYSVPGHDNKMQFESSSYEGYFLASEKERDLFKLILKKEDELGDRSIMFTVQNED
Result: true

Q: Form field: Ratio (-BP/+BP), DF-25000007 at least 2? Entry: IL-18 variant G3E, E6H, R27S, D54A, S55T, T63S, N91F, R104S (ligand) YFEKLHSKLSVIRNLNDQVLFIDQGNSPLFEDMTDSDMRDNAPRTIFIISMYKATQPRGMAVSISVKSEKISTLSSENKIISFKEMNPPDFIKDTKSDIIFFQSSVPGHDNKMQFESSSYEGYFLASEKERDLFKLILKKEDELGDRSIMFTVQNED
Result: true
